EC50 values by entry
assay: Inhibition of Rhinovirus B14 capsid infected in human HeLa Rh cells assessed as reduction in virus-induced cytopathic effect after 3 days by MTS assay

{"columns": ["COMPOUND", "COMPARISON_OPERATOR", "EC50, µM"],
 "data": [
  ["Cc1noc(C)c1-c1ccc(CC(O)c2ccc(-n3cccn3)cc2)c([N+](=O)[O-])c1 (stereo unspecified)", ">", 247],
  ["Cn1cc(-c2ccc(C[C@H](O)c3ccc(-n4cccn4)cc3)c([N+](=O)[O-])c2)cn1", "=", 0.035],
  ["Cn1cc(-c2ccc(C[C@H](O)c3ccc(-n4cncn4)cc3)c([N+](=O)[O-])c2)cn1", "=", 0.06],
  ["Cc1cc(CCCOc2c(C)cc(-c3noc(C(F)(F)F)n3)cc2C)on1", "=", 0.03],
  ["Cn1cc(-c2ccc(C[C@@H](O)c3ccc(-n4cccn4)cc3)c([N+](=O)[O-])c2)cn1", "=", 2.5],
  ["O=[N+]([O-])c1cc(-c2ccco2)ccc1CC(O)c1ccc(-c2ccncc2)cc1 (stereo unspecified)", "=", 1.2],
  ["O=[N+]([O-])c1cc(Br)ccc1CC(O)c1ccc(-n2cncn2)cc1 (stereo unspecified)", "=", 0.25],
  ["Cn1nc(C(F)(F)F)cc1-c1ccc(CC(O)c2ccc(-c3ccncc3)cc2)c([N+](=O)[O-])c1 (stereo unspecified)", "=", 1],
  ["O=[N+]([O-])c1cc(-c2cccs2)ccc1CC(O)c1ccc(-c2ccncc2)cc1 (stereo unspecified)", "=", 1.3],
  ["O=[N+]([O-])c1cc(Br)ccc1CC(O)c1ccc(-c2ccncc2)cc1 (stereo unspecified)", "=", 0.59],
  ["Cn1cc(-c2ccc(CC(O)c3ccc(-n4cncn4)cc3)c([N+](=O)[O-])c2)cn1 (stereo unspecified)", "=", 0.18]
]}

###

The following molecules are shown together with reported EC50 values.
assay: Inhibition of Rhinovirus A02 capsid infected in human HeLa Rh cells assessed as reduction in virus-induced cytopathic effect after 3 days by MTS assay
METRIC_NAME: EC50

{"columns": ["SMILES_STR", "EXPERIMENTAL_VALUE"],
 "data": [
  ["Cn1cc(-c2ccc(C[C@@H](O)c3ccc(-n4cccn4)cc3)c([N+](=O)[O-])c2)cn1", "> 128 µM"],
  ["Cn1cc(-c2ccc(C[C@H](O)c3ccc(-n4cncn4)cc3)c([N+](=O)[O-])c2)cn1", "> 128 µM"],
  ["Cc1cc(CCCOc2c(C)cc(-c3noc(C(F)(F)F)n3)cc2C)on1", "0.015 µM"],
  ["Cn1cc(-c2ccc(C[C@H](O)c3ccc(-n4cccn4)cc3)c([N+](=O)[O-])c2)cn1", "> 128 µM"],
  ["Cn1cc(-c2ccc(C[C@@H](O)c3ccc(-n4cncn4)cc3)c([N+](=O)[O-])c2)cn1", "> 128 µM"]
]}
